Each recorded value in this set is attributed to PubChem BioAssay (NCATS).

Test: Quantitative High-Throughput drug screen in 47 multiple myeloma cell lines against the NCATS MIPE library collection: MM1S_ATCC cell viability assay (AID 1918980); also: nearly all actives have a fitted effect of over 45% in size
Conditions: MM1S myeloma viability, CellTiter-Glo ATP luminescence, 48 h; series mostly up to 45.8 µM
Results filed as inconclusive are left out. The source made the active and inactive calls. Calls follow the shape of the dose curve; as a rule, active = well fitted cell-killing curve with a large enough effect; inconclusive = small, poorly fitted or top-dose-only effect, or effect the other way; inactive = no such curve, though single readings can be large or run the other way.
Possible outcomes: 1 (active), -1 (inactive)

[[record]]
compound = "COc1ccc(-c2cc3c(C)nc(N)nc3n(C3CCC(OCCO)CC3)c2=O)cn1 (centres undefined)"
assigned_label = 1

[[record]]
compound = "CN1CCC(CNc2ccc3ncc(-c4cccc(OC(F)(F)F)c4)n3n2)CC1"
assigned_label = 1

[[record]]
compound = "COc1ccc(F)c(F)c1C(=O)c1cnc(NC2CCN(S(C)(=O)=O)CC2)nc1N"
assigned_label = 1

[[record]]
compound = "COc1cc(OC2CCN(C)CC2)ccc1Nc1ncc2c(n1)n(C1CCCC1)c(=O)n2C"
assigned_label = 1

[[record]]
compound = "CC[C@H]1CN2CCc3cc(OC)c(OC)cc3[C@H]2C[C@@H]1C[C@@H]1NCCc2cc(OC)c(OC)cc21"
assigned_label = 1

[[record]]
compound = "COCCn1c2c([n+](Cc3cnccn3)c1C)C(=O)c1ccccc1C2=O"
assigned_label = 1

[[record]]
compound = "CNC(=O)CN1CCC(Oc2cc3c(Nc4cccc(Cl)c4F)ncnc3cc2OC)CC1"
assigned_label = 1

[[record]]
compound = "C=CC(=O)Nc1cccc(Oc2nc(Nc3ccc(N4CCN(C)CC4)cc3)ncc2Cl)c1"
assigned_label = 1

[[record]]
compound = "Nc1ccccc1NC(=O)c1ccc(CNc2nccc(-c3cccnc3)n2)cc1"
assigned_label = 1

[[record]]
compound = "CC(C)(C)c1cc(C(C)(C)C)c(NC(=O)c2c[nH]c3ccccc3c2=O)cc1O"
assigned_label = -1

[[record]]
compound = "CC(C)=CCCC(C)=CCCC(C)=CCSc1ccccc1C(=O)O"
assigned_label = 1

[[record]]
compound = "Cc1nc2ccc(CN(C)c3ccc(C(=O)N[C@@H](CCC(=O)O)C(=O)O)s3)cc2c(=O)[nH]1"
assigned_label = 1

[[record]]
compound = "COc1cccc2nc(-c3cccs3)nc(NN3C(=O)C=C(C)C3=O)c12"
assigned_label = 1

[[record]]
compound = "Cc1ccc2nc(NC(=O)CSc3nc4c(c(=O)n3-c3ccccc3)SCC4)sc2c1"
assigned_label = 1

[[record]]
compound = "CC(C)CC(=O)Nc1n[nH]c2c1CN(C(=O)C1CCN(C)CC1)C2(C)C"
assigned_label = 1

[[record]]
compound = "Cc1c(C)n(Cc2ccc(-c3ccccc3C(=O)O)cc2)c2ccc(C(=O)N[C@@H](C)c3ccc([N+](=O)[O-])cc3)cc12"
assigned_label = 1

[[record]]
compound = "COC(=O)Nc1ccc(-c2nc(N3CCOCC3)c3cnn(C4CCN(Cc5cccnc5)CC4)c3n2)cc1"
assigned_label = 1

[[record]]
compound = "Cc1ccc(C(N)=O)cc1Nc1nccc(-c2cn(C(C)C)c3cnccc23)n1"
assigned_label = 1

[[record]]
compound = "CN1CCN(Cc2ccc(NC(=O)Nc3ccc(Oc4cc(NC(=O)C5CC5)ncn4)cc3)cc2C(F)(F)F)CC1"
assigned_label = 1

[[record]]
compound = "CN(c1ncccc1CNc1nc(Nc2ccc3c(c2)CC(=O)N3)ncc1C(F)(F)F)S(C)(=O)=O"
assigned_label = 1

[[record]]
compound = "Nc1nc(-c2nn(Cc3ccccc3F)c3ncccc23)nc(N)c1N1CCOCC1"
assigned_label = -1

[[record]]
compound = "Nc1cccc(-c2cc3c(Oc4cccc(O)c4)ncnc3[nH]2)c1"
assigned_label = 1

[[record]]
compound = "CNC(=O)c1ccc(N2C(=S)N(c3cnc(C#N)c(C(F)(F)F)c3)C(=O)C23CCC3)cc1F"
assigned_label = 1

[[record]]
compound = "COc1cc2ncn(-c3cc(OCc4ccccc4C(F)(F)F)c(C(N)=O)s3)c2cc1OC"
assigned_label = 1

[[record]]
compound = "Cc1c(CN2CCN(S(C)(=O)=O)CC2)sc2c(N3CCOCC3)nc(-c3cnc(N)nc3)nc12"
assigned_label = 1

[[record]]
compound = "CC(C)c1cc(-c2n[nH]c(=O)n2-c2ccc3c(ccn3C)c2)c(O)cc1O"
assigned_label = 1

[[record]]
compound = "Nc1ccc(S(=O)(=O)Nc2ncccn2)cc1"
assigned_label = -1

[[record]]
compound = "Cc1c(Cn2c(C)nc3c(C(=O)O)cc(N4CCOCC4)cc32)cccc1C(F)(F)F"
assigned_label = 1

[[record]]
compound = "COc1cccc(-c2ccc(NC(=O)C3=C(C(=O)O)CCC3)c(F)c2)c1"
assigned_label = 1

[[record]]
compound = "CCC[C@H](NC(=O)C(C#N)=Cc1cccc(Br)n1)c1ccccc1"
assigned_label = 1

[[record]]
compound = "Cc1cc(Nc2ncnc3ccc(-c4ccc(CNCCS(C)(=O)=O)o4)cc23)ccc1Oc1ccn2ncnc2c1"
assigned_label = 1

[[record]]
compound = "Nc1nc(Nc2ccc(S(N)(=O)=O)cc2)nn1C(=O)c1c(F)cccc1F"
assigned_label = 1

[[record]]
compound = "CNc1nccc(-c2cccnc2Oc2cc(C(=O)Nc3cccc(C(F)(F)F)c3)ccc2C)n1"
assigned_label = 1

[[record]]
compound = "O=C(C=Cc1cccc(S(=O)(=O)Nc2ccccc2)c1)NO"
assigned_label = 1

[[record]]
compound = "COc1c(OCCCN2CCOCC2)ccc2c3n(c(=NC(=O)c4cnc(N)nc4)nc12)CCN3"
assigned_label = 1

[[record]]
compound = "Cc1ccc(-c2ncn(-c3ccc(Nc4nccc(-c5cccc(N6CCOCC6)c5)n4)cc3)n2)cn1"
assigned_label = 1

[[record]]
compound = "C1Cc2[nH]nc(-c3nn[nH]n3)c2C1"
assigned_label = -1

[[record]]
compound = "c1ccc2c(CCNc3ccc(Nc4ccncc4)cc3)c[nH]c2c1"
assigned_label = 1

[[record]]
compound = "CCOC(=O)C1=C(C)NC2=C(C(=O)CC(C)(C)C2)C1c1ccc(-c2ccccc2)cc1 (centres undefined)"
assigned_label = 1

